- assayNotes: AUC (infinity) in C57Bl/6 mouse at 5 mg/kg, ip
- Assay type: ADME, organism-based
- Design: time infinity, dose 5 mg/kg, route intraperitoneal
- conditionParameters: plasma
quantityName: AUC(0-inf) (ng·h/mL)
Reply with just the number (in ng·h/mL).

Per the record, Cc1cc2ccccc2n1CCNC(=O)c1ccc(-c2nnn[nH]2)cc1 has AUC(0-inf) of 1600

----------
- tgt: UniProtKB P43116
- assayNotes: Antagonist activity at EP2 receptor (unknown origin) expressed in rat C6 cells assessed as inhibition of PGE2-induced response
- Format: cell-based
With a cut-off of 50 nM, any Kb strictly below it is called Y; any Kb meeting it or above is called N.

State whether 50 nM exceeds Kb recorded for Cc1cc2ccccc2n1CCNC(=O)c1cnc(N)nc1 .
N

In plain terms, does Cc1cc2ccccc2n1CCNC(=O)c1cccc(N2CCOCC2)c1 come in under 50 nM for Kb?
N

Kb under 50 nM? Item: CC(=O)Nc1ccc(C(=O)NCCn2c(C)cc3ccccc32)cc1
N

Decide: Kb of Cc1cc2ccccc2n1CCNC(=O)c1ccc(N2CCCC2)cc1 strictly below 50 nM?
Y

Threshold test, Kb < 50 nM: CCN(CC)C(=O)c1ccc(C(=O)NCCc2c(C)[nH]c3ccccc23)cc1
N

Lab note: Kb threshold 50 nM. Does this compound come in strictly under it? Cc1cc2ccccc2n1CCNC(=O)c1ccc(N2CCN(C)CC2)c(F)c1
Y

Record Cc1cc2ccccc2n1CCNC(=O)c1ccc(N2CCC(O)CC2)cc1 : is its Kb strictly below 50 nM?
Y

Say whether its Kb is strictly beneath 50 nM. Entry: Cc1cc2ccccc2n1CCNC(=O)c1ccc(C(N)=O)cc1
N

Hello, I'm reviewing records and need to know if Kb of CCN(CC)c1ccc(C(=O)NCCn2c(C)nc3ccccc32)cc1 is below 50 nM. Could you check?
N

I'd appreciate it if you could check whether Cc1cc2ccccc2n1CCNC(=O)c1ccc(OC2CCNCC2)cc1 has Kb smaller than 50 nM.
N

----------
- tgt: Prostaglandin E2 receptor EP2 subtype (Homo sapiens) (UniProt P43116)
- Sequence (P43116 whole entry): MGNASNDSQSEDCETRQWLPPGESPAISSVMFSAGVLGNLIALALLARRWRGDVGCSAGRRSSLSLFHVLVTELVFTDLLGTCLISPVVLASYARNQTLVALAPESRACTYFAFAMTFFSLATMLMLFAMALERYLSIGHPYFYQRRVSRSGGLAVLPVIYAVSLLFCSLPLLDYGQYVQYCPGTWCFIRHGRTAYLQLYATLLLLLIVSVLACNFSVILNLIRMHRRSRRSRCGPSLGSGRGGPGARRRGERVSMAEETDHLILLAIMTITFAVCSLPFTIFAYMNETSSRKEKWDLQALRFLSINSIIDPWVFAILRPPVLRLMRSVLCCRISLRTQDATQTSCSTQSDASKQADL
- assayNotes: Antagonist activity at EP2 receptor (unknown origin) expressed in rat C6 cells assessed as inhibition of PGE2-induced response
- Format: cell-based
quantityName: Kb (nM)
The reply should be a number in nM, with the unit left off.

Lab book: Kb of Cc1cc2ccccc2n1CCNC(=O)c1nc2cc(F)ccc2[nH]1 noted as 130

For reference, reported Kb for CCN(CC)C(=O)c1ccc(C(=O)NCCn2c(C)cc3ccccc32)cc1 stands at 800

The compound identified as COc1ccc(C(=O)NCCn2c(C)cc3ccccc32)cc1F registered its Kb at 86.8

// Kb lookup, compound = CCN(CC)c1ccc(C(=O)NCCn2c(C)cc3ccccc32)cc1 , result: 2.7

Value of measured Kb for the entry Cc1cc2ccccc2n1CCNC(=O)c1ccc(C#N)cc1F : 280

CCN(CC)c1ccc(C(=O)NCCn2c(C)cc3ccccc32)cc1C(F)(F)F has a reported Kb of 310

The value of Kb measured for the compound Cc1cc2ccccc2n1CCNC(=O)c1ccc(N(C)C)c(F)c1 turned out to be 18.1

Memo: Cc1cc2ccccc2n1CCNC(=O)c1cnc2ccc(F)cc2c1O , reported Kb: 175

Quick note, Kb for Cc1cc2ccccc2n1CCNC(=O)c1cnc(N2CCOCC2)nc1 landed at 76.5

Sure, the documented Kb for Cc1cc2ccccc2n1CCNC(=O)c1ccc(N2CCNCC2)cc1 is 410

// Kb value for Cc1cc2ccccc2n1CCNC(=O)c1ccc(CN2CCOCC2)cc1 : 970

----------
- tgt: Prostaglandin D2 receptor (Homo sapiens)
- assayNotes: Antagonist activity at DP1 receptor (unknown origin) expressed in rat C6 cells by TR-FRET assay
- Type: cell-based
quantityName: Kb (µM)
Please give a number only; it is taken to be in µM.

# lookup: Cc1cc2ccccc2n1CCNC(=O)c1ccc(N2CCC(O)CC2)cc1 on Prostaglandin D2 receptor (Homo sapiens), Kb = 4.62

Measured Kb for this entry Cc1cc2ccccc2n1CCNC(=O)c1ccc(N2CCOCC2)c(F)c1 on Prostaglandin D2 receptor (Homo sapiens): 2.2

Cc1cc2ccccc2n1CCNC(=O)c1ccc(N2CCOCC2)cc1 tested on Prostaglandin D2 receptor (Homo sapiens) gave Kb: 5.21

Sample CCN(CC)c1ccc(C(=O)NCCn2c(C)cc3ccccc32)cc1 , system: Prostaglandin D2 receptor (Homo sapiens). Its Kb is 3.19

Form: item Cc1cc2ccccc2n1CCNC(=O)c1ccc(N2CCN(C)CC2)c(F)c1 ; test system Prostaglandin D2 receptor (Homo sapiens); Kb: 0.98

# Cc1[nH]c2ccccc2c1CCNC(=O)c1ccc(N2CCOCC2)cc1 with Prostaglandin D2 receptor (Homo sapiens): Kb is 7.79

So the reported Kb for CCN(CC)c1ccc(C(=O)NCCc2c(C)[nH]c3ccccc23)cc1 , on Prostaglandin D2 receptor (Homo sapiens), turned out to be 9.48

I looked up Cc1[nH]c2ccccc2c1CCNC(=O)c1ccc(N(C)C)cc1 and its Kb for Prostaglandin D2 receptor (Homo sapiens) was 3.61

----------
I'd appreciate it if you could supply remaining at […], 10 µM values for the items below.
- assayNotes: Metabolic stability of the compound in human liver microsomes assessed as compound remaining at 10 uM after 15 mins
- Assay type: ADME
- conditionParameters: read-out: Stability
Respond with the bare value in %.

remaining at […], 10 µM measured on CCN(CC)c1ccc(C(=O)NCCn2c(C)cc3ccccc32)cc1 = 19

Field remaining at […], 10 µM (entry Cc1cc2ccccc2n1CCNC(=O)c1ccc(N2CCCCCC2)cc1 ) reads 66

Item: Cc1[nH]c2ccccc2c1CCNC(=O)c1ccc(N2CCOCC2)cc1 | remaining at […], 10 µM: 75

Looking up Cc1cc2ccccc2n1CCNC(=O)c1ccc(N2CCCCC2)cc1 , I see its remaining at […], 10 µM listed as 67

----------
Would you mind telling me the reported CC50 of each entry?
- Test system: C6
- assayNotes: Cytotoxicity against rat C6 cells
- Format: cell-based
- conditionParameters: c6
Reply numerically in µM, unit not repeated.

Quick note, CC50 for CCN(CC)c1ccc(C(=O)NCCn2c(C)cc3ccccc32)cc1 landed at 320

Query Cc1cc2ccccc2n1CCNC(=O)c1ccc(N2CCCCCC2)cc1 yields CC50 of 327

Lab book: CC50 of Cc1cc2ccccc2n1CCNC(=O)c1ccc(N2CCCC2)cc1 noted as 337

Item: Cc1cc2ccccc2n1CCNC(=O)c1ccc(N2CCN(C)CC2)c(F)c1 | CC50: 300

Reported CC50 of Cc1cc2ccccc2n1CCNC(=O)c1ccc(N(C)C)cc1 : 310

The molecule listed as CCCN(CCC)c1ccc(C(=O)NCCn2c(C)cc3ccccc32)cc1 shows CC50 equal to 332

The value of CC50 measured for the molecule Cc1cc2ccccc2n1CCNC(=O)c1ccc(N2CCC(O)CC2)cc1 turned out to be 163

The value of CC50 measured for the molecule Cc1cc2ccccc2n1CCNC(=O)c1ccc(N2CCCCC2)cc1 turned out to be 315

For reference, reported CC50 for Cc1cc2ccccc2n1CCNC(=O)c1ccc2c(c1)n(C)c(=O)n2C stands at 154

For this molecule ( Cc1cc2ccccc2n1CCNC(=O)c1ccc(N2CCOCC2)cc1 ), measured CC50 is 289

Kindly note the recorded CC50 for Cc1[nH]c2ccccc2c1CCNC(=O)c1ccc(N2CCOCC2)cc1 , which is 311

The molecule identified as Cc1[nH]c2ccccc2c1CCNC(=O)c1ccc(N(C)C)cc1 registered its CC50 at 320

----------
- tgt: UniProt:P43116
- assayNotes: Antagonist activity at EP2 receptor (unknown origin) expressed in rat C6 cells assessed as inhibition of PGE2-induced response
- Format: cell-based
For each of the compounds below, state its Kb.
# output: bare number, implied unit nM

// Kb (UniProt:P43116) for Cc1cc2ccccc2n1CCNC(=O)c1cccnc1N = 520

Record Cc1[nH]c2ccccc2c1CCNC(=O)c1ccc(N2CCN(C)CC2)cc1 / UniProt:P43116, Kb recorded as 135

// assay UniProt:P43116, entry Cc1[nH]c2ccccc2c1CCNC(=O)c1ccc(N(C)C)cc1 , Kb value = 10.8

The recorded Kb with UniProt:P43116 for CCN(CC)c1ccc(C(=O)NCCn2c(C)cc3ccccc32)cc1F was 4.6

# Kb measured on UniProt:P43116 for item CC1=Nc2ccccc2C1CCNC(=O)c1cnc(N2CCOCC2)nc1 (stereo unspecified) = 280

Cc1cc2ccccc2n1CCNC(=O)c1ccc(CNC(=O)OC(C)(C)C)cc1 tested on UniProt:P43116 gave Kb: 84

Note to self: Kb of Cc1cc2ccccc2n1CCNC(=O)c1ccc(N2CCCCC2)cc1 with UniProt:P43116 was 9.4

Record Cc1[nH]c2ccccc2c1CCNC(=O)c1ccc(N2CCOCC2)c(F)c1 / UniProt:P43116, Kb recorded as 66

Reported Kb (UniProt:P43116) for entry Cc1cc2ccccc2n1CCNC(=O)c1ccc(N2CCCCCC2)cc1 is 22.6

The measured Kb that Cc1cc2ccccc2n1CCNC(=O)c1ccc(N2CCC(C(=O)O)CC2)cc1 showed for UniProt:P43116 is 89.7

Field Kb (system: UniProt:P43116) for entry Cc1cc2ccccc2n1CCNC(=O)c1ccc(-n2nn[nH]c2=S)cc1 = 32.2

Field Kb (system: UniProt:P43116) for entry COc1ccc(C(=O)NCCn2c(C)cc3ccccc32)cc1OC = 22.3

Test item COc1ccc(C(=O)NCCn2c(C)cc3ccccc32)cc1 ; UniProt:P43116; reported Kb was 75.6

Observed Kb, UniProt:P43116, Cc1cc2ccccc2n1CCNC(=O)c1ccc(C#N)cc1 : 140

// assay UniProt:P43116, entry CCN(CC)c1ccc(C(=O)NCCc2c(C)[nH]c3ccccc23)cc1 , Kb value = 6.9

Fill in: UniProt:P43116 Kb for CCOC(=O)C1CCN(c2ccc(C(=O)NCCn3c(C)cc4ccccc43)cc2)CC1 = 500

Entry Cc1cc2cc(F)ccc2n1CCNC(=O)c1ccc(N2CCN(C)CC2)c(F)c1 ; assay system UniProt:P43116; Kb recorded at 62.2

Measured on UniProt:P43116, Cc1cc2ccccc2n1CCNC(=O)c1ccc2[nH]c(=S)[nH]c(=O)c2c1 has a documented Kb of 84.1

Case Cc1cc2ccccc2n1CCNC(=O)c1ccc2[nH]nnc2c1 , UniProt:P43116, Kb recorded as 87.5

Lab entry: UniProt:P43116 assay, compound Cc1cc2ccccc2n1CCNC(=O)c1ccc(-n2cnnn2)cc1 , Kb = 42.2

So the reported Kb for Cc1cc2ccccc2n1CCNC(=O)c1ccc(N(C)C)cc1 , on UniProt:P43116, turned out to be 9.8

Kb value, target or system UniProt:P43116, for Cc1cc2ccccc2n1CCNC(=O)c1ccc(N2CCN(C)CC2)cc1 : 64

GET /values?item= Cc1cc2ccccc2n1CCNC(=O)c1ccc(N2CCCN(C)CC2)cc1 &system= UniProt:P43116 returns Kb: 148
